- tested.system: hGIPR (Homo sapiens, UniProt P48546)
- Sequence (P48546 22-466): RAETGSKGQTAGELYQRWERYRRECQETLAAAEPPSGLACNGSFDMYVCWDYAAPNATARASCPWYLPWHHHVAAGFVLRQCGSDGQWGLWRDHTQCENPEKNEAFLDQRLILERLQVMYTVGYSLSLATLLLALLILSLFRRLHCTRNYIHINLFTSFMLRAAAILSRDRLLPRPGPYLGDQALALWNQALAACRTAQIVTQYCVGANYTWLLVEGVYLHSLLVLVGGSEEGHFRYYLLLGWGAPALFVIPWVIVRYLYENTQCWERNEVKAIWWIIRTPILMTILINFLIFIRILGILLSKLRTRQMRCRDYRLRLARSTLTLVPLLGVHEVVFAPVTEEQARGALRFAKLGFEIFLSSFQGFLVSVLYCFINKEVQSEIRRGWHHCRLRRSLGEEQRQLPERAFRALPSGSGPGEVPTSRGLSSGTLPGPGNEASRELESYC
- assay.notes: Functional cAMP activity in the presence of 1% HSA
- Format: cell-based
- measurement.parameters: read-out: cAMP Rel EC50, hGIPR
Starred links: 1 amine or outer side, 2 acyl side, 3 side chain; linkers in the order of their positions; H or OH if unused. Non-standard residues stand in square brackets, D forms with d. Groups on a side chain read outwards from the residue. No end group written: not given here. *: point of attachment. C20 diacid = O=C(O)CCCCCCCCCCCCCCCCCCC(=O)*; C18 diacid = O=C(O)CCCCCCCCCCCCCCCCC(=O)*; αMePhe(2-F) = C[C@](N)(Cc1ccccc1F)C(=O)O; γGlu = O=C(O)[C@H](CCC(=O)[*:2])N[*:1]; αMe4Pal = C[C@](N)(Cc1ccncc1)C(=O)O; αMeY = C[C@](N)(Cc1ccc(O)cc1)C(=O)O; 4Pal = N[C@@H](Cc1ccncc1)C(=O)O; αMeL = CC(C)C[C@](C)(N)C(=O)O; αMeS = C[C@](N)(CO)C(=O)O; Orn = NCCC[C@H](N)C(=O)O; AEEA = NCCOCCOCC(=O)O; Aib = CC(C)(N)C(=O)O
Catalogue of log10 of EC50 values
test.readout: log10 of EC50 (log10 of the value in nM)

substance	test.readout	test.value
H-Y[Aib]QGT[αMePhe(2-F)]TSD[4Pal]SI[αMeL]LD[Orn]K([AEEA-γGlu-C18 diacid])AQ[αMe4Pal][Orn]FI[dE][αMeY]LIEGGPSSGEPPPESEE-NH2 [Example 753]	log10 of EC50	0.27
H-Y[Aib]QGTFTSD[4Pal]SQ[αMeL]LD[Orn]K([AEEA-γGlu-C18 diacid])AQ[αMe4Pal]AFIE[αMeY]LIA[Aib]GPSSGAPPPSGSEE-NH2 [Example 1110]	log10 of EC50	0.73
H-Y[Aib]QGT[αMePhe(2-F)]TSD[4Pal][αMeS]I[αMeL]LD[Orn]K([AEEA-γGlu-γGlu-C18 diacid])AQ[Aib][Orn]FIEYLIEAGPSSGEPPPEEG-NH2 [Example 485]	log10 of EC50	-0.06
Y[Aib]QGT[αMePhe(2-F)]TSD[4Pal][αMeS]I[αMeL]LD[Orn]K([γGlu-γGlu-C18 diacid])AQ[Aib]NFI[dE][αMeY]LQEGGPSSGEPPPEGTE-NH2 [Example 526]	log10 of EC50	0.33
H-Y[Aib]QGTFTSDFS[Orn][αMeL]LDKK([AEEA-γGlu-C18 diacid])AQ[Aib]AFIEYLLEGGESSGAPPPGGS-NH2 [Example 161]	log10 of EC50	1.94
H-Y[Aib]QGTFTSDFS[Orn][αMeL]LDKK([AEEA-γGlu-C20 diacid])AQ[Aib]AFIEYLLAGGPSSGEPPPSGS-NH2 [Example 92]	log10 of EC50	1.79
H-Y[Aib]QGTFTSD[4Pal]SQ[αMeL]LDKK([AEEA-γGlu-C18 diacid])AQ[αMe4Pal]AFIEYLIE[Aib]GPSSGAPPPSGSEEE-NH2 [Example 898]	log10 of EC50	1.41
